For each record, write down the corresponding pEC50.
target: UniProt:O14842; assay: GPR40 calcium flux assay, HEK293 cells stably expressing human GPR40; details: transfected HEK293 cells stably expressing human GPR40, Fluo 8 dye, read-out: hGPR40 Ca2+ Assay EC50
Answer as the number alone; pEC50 is minus log10 of concentration in mol/L.

[ask] Need pEC50 of COc1ccc(F)c([C@H]2CC[C@@H](CNc3cccc([C@@H](CC(=O)O)C4CC4)c3)CC2)c1 , thanks.
[reply] 7.15

[ask] Need pEC50 of COc1ccc(F)c([C@H]2CC[C@H](CCc3cccc([C@H](C4CC4)C(C)(F)C(=O)O)c3)CC2)c1 (stereo partly shown) , thanks.
[reply] 9.66

[ask] Need pEC50 of COc1cc([C@H]2CC[C@H](COc3cc([C@H](C4CC4)C(C)(F)C(=O)O)ccn3)CC2)c(F)cn1 (stereo partly shown) , thanks.
[reply] 7.10

[ask] Need pEC50 of COc1ccc(F)c([C@]2(F)CC[C@@H](COc3cccc([C@@H](CC(=O)O)C4CC4)c3)CC2)c1 , thanks.
[reply] 8.00

* * *

biological target: rat GPR40 (Rattus norvegicus, UniProt Q8K3T4); assay: GPR40 calcium flux assay, HEK293 cells stably expressing rat GPR40; settings: transfected HEK293 cells stably expressing rat GPR40, Fluo 8 dye, read-out: rGPR40 Ca2+ Assay EC50
Sequence (Q8K3T4 whole entry): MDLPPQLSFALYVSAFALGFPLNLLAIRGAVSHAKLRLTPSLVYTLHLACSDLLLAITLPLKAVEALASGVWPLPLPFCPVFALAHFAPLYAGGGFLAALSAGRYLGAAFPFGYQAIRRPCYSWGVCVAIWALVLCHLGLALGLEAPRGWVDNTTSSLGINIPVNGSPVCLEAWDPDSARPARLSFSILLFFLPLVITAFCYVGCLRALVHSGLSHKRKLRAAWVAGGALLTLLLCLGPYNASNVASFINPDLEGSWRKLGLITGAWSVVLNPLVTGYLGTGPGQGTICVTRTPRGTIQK
READOUT_TYPE: pEC50
Answer as the number alone; pEC50 is minus log10 of concentration in mol/L.

[ask] Need pEC50 of CC(F)(C(=O)O)[C@H](c1cccc(OCC2CCC(c3cc(F)ncc3F)CC2)c1)C1CC1 (mixture of isomers) [Cpd 67] , thanks.
[reply] 7.92

[ask] Need pEC50 of COc1ccc(F)c([C@H]2CC[C@@H](COc3ccnc(C(CC(=O)O)C4CC4)c3)CC2)c1 (some centres unmarked) [Cpd 35] , thanks.
[reply] 5.27

[ask] Need pEC50 of COc1cc([C@H]2CC[C@H](COc3cccc([C@H](C4CC4)C(C)(F)C(=O)O)c3)CC2)c(F)cn1 (some centres unmarked) [Cpd 61] , thanks.
[reply] 9.28

[ask] Need pEC50 of CCc1ccc(F)c([C@H]2CC[C@H](COc3cccc([C@H](C4CC4)C(C)(F)C(=O)O)c3)CC2)c1 (some centres unmarked) [Cpd 68] , thanks.
[reply] 8.65

[ask] Need pEC50 of COc1ccc(F)c([C@]2(OC)CC[C@H](COc3cccc([C@@H](CC(=O)O)C4CC4)c3)CC2)c1 [Cpd 12] , thanks.
[reply] 6.82

[ask] Need pEC50 of COc1ccc(F)c([C@H]2CC[C@H](COc3cc([C@@H](CC(=O)O)C4CC4)ccn3)CC2)c1 [Cpd 27] , thanks.
[reply] 9.05

[ask] Need pEC50 of COc1cc([C@H]2CC[C@H](COc3cc([C@@H](CC(=O)O)C4CC4)ccn3)CC2)c(F)cn1 [Cpd 25] , thanks.
[reply] 8.89

* * *

target: human GPR40 (Homo sapiens); assay: GPR40 calcium flux assay, HEK293 cells stably expressing human GPR40; conditions: transfected HEK293 cells stably expressing human GPR40, Fluo 8 dye, read-out: hGPR40 Ca2+ Assay EC50
Sequence (O14842 whole entry): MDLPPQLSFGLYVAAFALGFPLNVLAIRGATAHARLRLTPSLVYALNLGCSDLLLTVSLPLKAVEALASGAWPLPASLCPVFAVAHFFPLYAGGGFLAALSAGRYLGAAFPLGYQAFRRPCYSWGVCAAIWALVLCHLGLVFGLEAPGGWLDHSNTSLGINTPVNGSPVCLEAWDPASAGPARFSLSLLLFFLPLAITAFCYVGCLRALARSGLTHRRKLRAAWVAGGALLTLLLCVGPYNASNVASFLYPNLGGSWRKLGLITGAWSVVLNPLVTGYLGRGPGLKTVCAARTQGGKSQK
For each record, write down the corresponding log10 EC50.
In our notation, the value equals log10 of EC50 in µM.

[ask] Need log10 EC50 of COc1cc(C2CCC(COc3cccc([C@@H](CC(=O)O)C4CC4)c3)C(CC(C)C)C2)c(F)cn1 (stereo partly drawn) , thanks.
[reply] -2.68

[ask] Need log10 EC50 of COc1ccc(F)c([C@H]2CC[C@H](/C=C/c3cccc([C@H](C4CC4)C(C)(F)C(=O)O)c3)CC2)c1 (stereo partly drawn) , thanks.
[reply] -2.73

[ask] Need log10 EC50 of COc1ccc(F)c([C@H]2CC[C@H](CNc3cccc([C@@H](CC(=O)O)C4CC4)c3)CC2)c1 , thanks.
[reply] -1.66

[ask] Need log10 EC50 of COc1ccc(F)c([C@]2(F)CC[C@H](COc3cccc([C@@H](CC(=O)O)C4CC4)c3)CC2)c1 , thanks.
[reply] -1.08

[ask] Need log10 EC50 of COc1cc([C@H]2CC[C@H](COc3cc([C@H](CC(=O)O)C4CC4)ccn3)CC2)c(F)cn1 , thanks.
[reply] -2.08

[ask] Need log10 EC50 of COc1ccc(F)c([C@H]2CC[C@H](COc3cccc([C@@H](Cc4nnn[nH]4)C4CC4)c3)CC2)c1 , thanks.
[reply] -1.35

[ask] Need log10 EC50 of COc1cc([C@H]2CC[C@H](COc3cccc([C@H](C4CC4)[C@](C)(F)C(=O)O)c3)CC2)c(F)cn1 , thanks.
[reply] -1.49

[ask] Need log10 EC50 of COc1cc([C@H]2CC[C@H](COc3cc([C@@H](Cc4nnn[nH]4)C4CC4)ccn3)CC2)c(F)cn1 , thanks.
[reply] -0.55

[ask] Need log10 EC50 of CCc1ccc(F)c([C@H]2CC[C@H](COc3cccc([C@H](C4CC4)C(C)(F)C(=O)O)c3)CC2)c1 (stereo partly drawn) , thanks.
[reply] -3.57

[ask] Need log10 EC50 of COc1ccc(F)c([C@H]2CC[C@H](COc3cc([C@H](CC(=O)O)C4CC4)ccn3)CC2)c1 , thanks.
[reply] -1.96

[ask] Need log10 EC50 of COc1cc([C@H]2CC[C@@H](COc3cncc(C(CC(=O)O)C4CC4)c3)CC2)c(F)cn1 (stereo partly drawn) , thanks.
[reply] -0.51

[ask] Need log10 EC50 of COc1cc([C@H]2CC[C@@H](COc3ccnc(C(CC(=O)O)C4CC4)c3)CC2)c(F)cn1 (stereo partly drawn) , thanks.
[reply] -1.23

[ask] Need log10 EC50 of CCOC(CC(=O)O)c1cccc(OC[C@H]2CC[C@@H](c3cc(OC)ccc3F)CC2)c1 (stereo partly drawn) , thanks.
[reply] -0.30

[ask] Need log10 EC50 of COc1ccc(F)c([C@H]2CC[C@H](COc3cccc([C@@H](CC(=O)O)C4CC4)c3)CC2)c1 , thanks.
[reply] -3.10

[ask] Need log10 EC50 of COc1ccc(F)c([C@H]2CC[C@H](COc3cccc([C@H](C4CC4)[C@@](C)(F)C(=O)O)c3)CC2)c1 , thanks.
[reply] -3.57
